These measurements were taken from paper PMC12136788.

Target: T1, UNK ZnF1-3 (human, UniProt Q9C0B0 31-174)
T1 sequence: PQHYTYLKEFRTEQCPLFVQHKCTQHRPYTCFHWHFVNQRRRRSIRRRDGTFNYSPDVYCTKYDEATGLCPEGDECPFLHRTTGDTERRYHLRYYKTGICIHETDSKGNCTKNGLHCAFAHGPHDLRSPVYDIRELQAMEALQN
Experiment: nsRBNS (natural sequence RNA bind-n-seq); RBNS binding buffer (assumed for nsRBNS): 25 mM Tris pH 7.5, 150 mM KCl, 3 mM MgCl2, 0.01% Triton X-100, 500 ug/ml BSA, 20 U/ml SUPERase-In, 4 C; UNK is unkempt and MSI1 is Musashi-1; names of the RNAs are library labels; protein concentration not given here; high values mean tight binding
The full ranking holds about 24,000 sequences; the median of “enrichment r” is about 0.99, and the highest 2% start at about 3.7. These entries were drawn from the full list.
Label scheme for binding signal: lower than 0.7 enrichment R is 0 (no), 0.7 enrichment R and above is 1 (yes).

{"columns": ["binder", "class"],
 "data": [
  ["chr3:131220538:131220539:-_ENSG00000114686_ENST00000264995|hu_mus|motif|central (ssRNA) RNA: GGGAGUUCUACAGUCCGACGAUCUUCUUCAGAAAGAUGUUCAUCCCACCAAGUACUACUCUUGCUGUGGAGAUUUCGGACAAAGAACAAGAUAUUCUUUCUUCUCUCUAAGCCGGGGUCAGCACCUAGGCCUCUGGCGCCACACAACAGAGGAUUGAGCAUCA", "1 (yes)"],
  ["chr11:77843920:77843921:+_ENSMUSG00000037791_ENSMUST00000049167|mus_hu|motif|central (ssRNA) RNA: GGGAGUUCUACAGUCCGACGAUCUUUUUUAUAUACAGAAUACAGGAAAGUUUCUGUAAAGUCUAAAACAUUACAAUUACGGUGUACAUUGGUACUGGUUGUGGGGGUGGGAGGAGAGGAGGGAACCAGGGGCAGGAGGAAGAGCAACAGAGGAUUGAGCAUCA", "1 (yes)"],
  ["chr16:75661828:75661829:-_ENSG00000065427_ENST00000302445|hu_hu|FALSE|FALSE (ssRNA) RNA: GGGAGUUCUACAGUCCGACGAUCUAUUAUUUUCUAGACAGAAGUGCCAACUGUUGUGCUUUCCAGUGUAUCAGUGGUUGCUACAUUCUCCUUCUUGUCUUCGGGUUUCAUGGCAGGAAACAGAAGUACUUCCUUGAUGUUGUUCAACAGAGGAUUGAGCAUCA", "0 (no)"],
  ["chr2:160855017:160855018:-_ENSMUSG00000057133_ENSMUST00000039782|mus_hu|FALSE|FALSE (ssRNA) RNA: GGGAGUUCUACAGUCCGACGAUCAUCCUUUUCGAGCUCUUCCAUUGUGGCCCAUUUACAAUGUAAGUAGGAAAAAUUUCUAUACUUAACGUAGAACAGCUCCAAGUCGAACGGAGGUUCUCCUGGGUGAACCUCCUGGACAGUCAACAGAGGAUUGAGCAUCA", "0 (no)"],
  ["chr12:73313434:73313435:-_ENSMUSG00000021087_ENSMUST00000021497|mus_mus|motif|central (ssRNA) RNA: GGGAGUUCUACAGUCCGACGAUCCAUAUAUCCUAAGAGUACAGGAAGAGCCUCAAAACACCUGUCUCAAAGUUUGCCUCGGAGAUUAUGGUACCAGGAAAGGGAAACAAUCAAUUUGCAGUAACGAGGAAGGAGAGAGCUGUUCAACAGAGGAUUGAGCAUCA", "1 (yes)"],
  ["chr11:63961690:63961691:+_ENSG00000168439_ENST00000305218|hu_mus|FALSE|FALSE (ssRNA) RNA: GGGAGUUCUACAGUCCGACGAUCUUCAUGUUUUAAACCUUCUUCAUAGGUUCGUUUGGCUUCCUCAAACCGGUUUAGGAAUUCAAGGGCUGCUGCUUUUCUUGAAUAACCCUUGCCCCAGUCAGGCUUCAGGUCAACAGUCUUCAACAGAGGAUUGAGCAUCA", "0 (no)"]
]}
